Data origin: ChEMBL document CHEMBL1137799

protocol_text: Protein binding in Wistar rat serum at 5 mg/kg, iv and po
Format: ADME, organism-based
Parameters: dose 5 mg/kg, route oral
test_settings: read-out: PB (converted)
endpoint_name: fraction unbound
Number only, please.

Data request: Look up and state reported fraction unbound for COc1ccc2cc1Oc1ccc(cc1)C[C@H]1c3c(cc4c(c3Oc3cc5c(cc3OC)CCN(C)[C@@H]5C2)O[14CH2]O4)CCN1C
Data returned: 0.26

----------
protocol_text: Toxicity in ip dosed rat
Format: organism-based
test_settings: in vivo
endpoint_name: LD50 (mg/kg)
Hi! Could you send only the number? It should be in mg/kg, unit omitted.

Data request: Look up and state reported LD50 for COc1cc2c(cc1OC)[C@@H](Cc1ccc(Oc3cc(C[C@@H]4c5cc(OC)c(OC)cc5CCN4C)ccc3O)cc1)N(C)CC2
Data returned: 205
